Conditions: in acetone, 283.18 K
parameter measured: solubility (mole fraction)

INSERT INTO results (smiles_notation, value) VALUES
  ('O=C(O)c1cccc([N+](=O)[O-])c1C(=O)O', 0.0541);

====

Conditions: in ethyl acetate, 303.21 K
parameter measured: solubility (mole fraction)

INSERT INTO results (smiles_notation, parameter_measured, value) VALUES
  ('O=C(O)c1cccc([N+](=O)[O-])c1C(=O)O', 'solubility (mole fraction)', 0.0102);

====

Settings: in methyl acetate, 323.19 K
parameter measured: solubility (mole fraction)

INSERT INTO measurements (smiles_notation, value) VALUES
  ('O=C(O)c1cccc([N+](=O)[O-])c1C(=O)O', 0.0452);

====

Settings: in THF, 308.19 K
parameter measured: solubility (mole fraction)

INSERT INTO measurements (smiles_notation, parameter_measured, value) VALUES
  ('O=C(O)c1cccc([N+](=O)[O-])c1C(=O)O', 'solubility (mole fraction)', 0.208);

====

Conditions: in 1,4-dioxane, 298.31 K
parameter measured: solubility (mole fraction)

INSERT INTO assay_data (smiles_notation, parameter_measured, value) VALUES
  ('O=C(O)c1cccc([N+](=O)[O-])c1C(=O)O', 'solubility (mole fraction)', 0.097);

====

Conditions: in THF, 333.17 K
parameter measured: solubility (mole fraction)

INSERT INTO results (smiles_notation, parameter_measured, value) VALUES
  ('O=C(O)c1cccc([N+](=O)[O-])c1C(=O)O', 'solubility (mole fraction)', 0.214);

====

Settings: in ethyl acetate, 288.26 K
parameter measured: solubility (mole fraction)

INSERT INTO assay_data (smiles_notation, parameter_measured, value) VALUES
  ('O=C(O)c1cccc([N+](=O)[O-])c1C(=O)O', 'solubility (mole fraction)', 0.00847);

====

Conditions: in water, 353.28 K
parameter measured: solubility (mole fraction)

INSERT INTO assay_data (smiles_notation, value) VALUES
  ('O=C(O)c1cccc([N+](=O)[O-])c1C(=O)O', 0.0241);

====

Conditions: in n-butyl acetate, 333.19 K
parameter measured: solubility (mole fraction)

INSERT INTO measurements (smiles_notation, value) VALUES
  ('O=C(O)c1cccc([N+](=O)[O-])c1C(=O)O', 0.0086);

====

Conditions: in water, 323.18 K
parameter measured: solubility (mole fraction)

INSERT INTO measurements (smiles_notation, value) VALUES
  ('O=C(O)c1cccc([N+](=O)[O-])c1C(=O)O', 0.00451);

====

Conditions: in n-butyl acetate, 313.27 K
parameter measured: solubility (mole fraction)

INSERT INTO assay_data (smiles_notation, parameter_measured, value) VALUES
  ('O=C(O)c1cccc([N+](=O)[O-])c1C(=O)O', 'solubility (mole fraction)', 0.00594);

====

Conditions: in n-butyl acetate, 283.18 K
parameter measured: solubility (mole fraction)

INSERT INTO results (smiles_notation, parameter_measured, value) VALUES
  ('O=C(O)c1cccc([N+](=O)[O-])c1C(=O)O', 'solubility (mole fraction)', 0.00243);

====

Conditions: in n-butyl acetate, 318.18 K
parameter measured: solubility (mole fraction)

INSERT INTO measurements (smiles_notation, value) VALUES
  ('O=C(O)c1cccc([N+](=O)[O-])c1C(=O)O', 0.00657);

====

Settings: in water, 313.19 K
parameter measured: solubility (mole fraction)

INSERT INTO assay_data (smiles_notation, parameter_measured, value) VALUES
  ('O=C(O)c1cccc([N+](=O)[O-])c1C(=O)O', 'solubility (mole fraction)', 0.003);

====

Conditions: in acetone, 293.33 K
parameter measured: solubility (mole fraction)

INSERT INTO assay_data (smiles_notation, value) VALUES
  ('O=C(O)c1cccc([N+](=O)[O-])c1C(=O)O', 0.0582);

====

Conditions: in ethyl formate, 283.17 K
parameter measured: solubility (mole fraction)

INSERT INTO results (smiles_notation, value) VALUES
  ('O=C(O)c1cccc([N+](=O)[O-])c1C(=O)O', 0.00268);

====

Conditions: in 1,4-dioxane, 288.17 K
parameter measured: solubility (mole fraction)

INSERT INTO assay_data (smiles_notation, value) VALUES
  ('O=C(O)c1cccc([N+](=O)[O-])c1C(=O)O', 0.0758);

====

Details: in n-butyl acetate, 323.22 K
parameter measured: solubility (mole fraction)

INSERT INTO results (smiles_notation, value) VALUES
  ('O=C(O)c1cccc([N+](=O)[O-])c1C(=O)O', 0.00724);

====

Details: in THF, 298.29 K
parameter measured: solubility (mole fraction)

INSERT INTO assay_data (smiles_notation, value) VALUES
  ('O=C(O)c1cccc([N+](=O)[O-])c1C(=O)O', 0.206);

====

Details: in water, 328.31 K
parameter measured: solubility (mole fraction)

INSERT INTO measurements (smiles_notation, value) VALUES
  ('O=C(O)c1cccc([N+](=O)[O-])c1C(=O)O', 0.00569);

====

Conditions: in water, 283.18 K
parameter measured: solubility (mole fraction)

INSERT INTO assay_data (smiles_notation, value) VALUES
  ('O=C(O)c1cccc([N+](=O)[O-])c1C(=O)O', 0.00115);

====

Settings: in n-butyl acetate, 298.19 K
parameter measured: solubility (mole fraction)

INSERT INTO results (smiles_notation, value) VALUES
  ('O=C(O)c1cccc([N+](=O)[O-])c1C(=O)O', 0.0041);

====

Conditions: in acetone, 288.27 K
parameter measured: solubility (mole fraction)

INSERT INTO assay_data (smiles_notation, value) VALUES
  ('O=C(O)c1cccc([N+](=O)[O-])c1C(=O)O', 0.056);

====

Conditions: in 1,4-dioxane, 323.29 K
parameter measured: solubility (mole fraction)

INSERT INTO measurements (smiles_notation, parameter_measured, value) VALUES
  ('O=C(O)c1cccc([N+](=O)[O-])c1C(=O)O', 'solubility (mole fraction)', 0.139);

====

Settings: in n-butyl acetate, 288.16 K
parameter measured: solubility (mole fraction)

INSERT INTO results (smiles_notation, value) VALUES
  ('O=C(O)c1cccc([N+](=O)[O-])c1C(=O)O', 0.00297);

====

Conditions: in ethyl acetate, 298.19 K
parameter measured: solubility (mole fraction)

INSERT INTO assay_data (smiles_notation, value) VALUES
  ('O=C(O)c1cccc([N+](=O)[O-])c1C(=O)O', 0.00958);

====

Details: in ethyl acetate, 283.2 K
parameter measured: solubility (mole fraction)

INSERT INTO measurements (smiles_notation, value) VALUES
  ('O=C(O)c1cccc([N+](=O)[O-])c1C(=O)O', 0.00793);

====

Settings: in acetone, 313.16 K
parameter measured: solubility (mole fraction)

INSERT INTO results (smiles_notation, parameter_measured, value) VALUES
  ('O=C(O)c1cccc([N+](=O)[O-])c1C(=O)O', 'solubility (mole fraction)', 0.0685);

====

Conditions: in 1,4-dioxane, 353.32 K
parameter measured: solubility (mole fraction)

INSERT INTO results (smiles_notation, value) VALUES
  ('O=C(O)c1cccc([N+](=O)[O-])c1C(=O)O', 0.171);

====

Conditions: in 1,4-dioxane, 338.22 K
parameter measured: solubility (mole fraction)

INSERT INTO measurements (smiles_notation, parameter_measured, value) VALUES
  ('O=C(O)c1cccc([N+](=O)[O-])c1C(=O)O', 'solubility (mole fraction)', 0.158);

====

Conditions: in acetone, 298.24 K
parameter measured: solubility (mole fraction)

INSERT INTO results (smiles_notation, value) VALUES
  ('O=C(O)c1cccc([N+](=O)[O-])c1C(=O)O', 0.0604);

====

Conditions: in water, 288.26 K
parameter measured: solubility (mole fraction)

INSERT INTO assay_data (smiles_notation, value) VALUES
  ('O=C(O)c1cccc([N+](=O)[O-])c1C(=O)O', 0.00129);

====

Conditions: in methyl acetate, 298.24 K
parameter measured: solubility (mole fraction)

INSERT INTO assay_data (smiles_notation, value) VALUES
  ('O=C(O)c1cccc([N+](=O)[O-])c1C(=O)O', 0.0378);

====

Settings: in 1,4-dioxane, 293.28 K
parameter measured: solubility (mole fraction)

INSERT INTO measurements (smiles_notation, parameter_measured, value) VALUES
  ('O=C(O)c1cccc([N+](=O)[O-])c1C(=O)O', 'solubility (mole fraction)', 0.0868);

====

Conditions: in methyl acetate, 318.17 K
parameter measured: solubility (mole fraction)

INSERT INTO measurements (smiles_notation, value) VALUES
  ('O=C(O)c1cccc([N+](=O)[O-])c1C(=O)O', 0.0437);
